I'd be grateful if you could share measured growth at 10 µM for these entries.
# Tested on: UACC-257
# ASSAY_INFO: Cytotoxicity against human UACC257 cells assessed as cell growth at 10 uM after 48 hrs by sulforhodamine B assay relative to control
# Format: functional
# PARTICULARS: UACC-257, 48 h, read-out: Activity
Give the value in % but do not write % after it.

Which growth at 10 µM reading was recorded for the compound `COc1ccc(-c2cc(/C=C/C(=O)c3ccc(N)cc3)[nH]n2)cc1OC` ? 39

Which growth at 10 µM reading was recorded for the compound `COc1ccc(C(=O)/C=C/c2cc(-c3cc(OC)c(OC)c(OC)c3)n[nH]2)cc1OC` ? -98

Which growth at 10 µM reading was recorded for the compound `COc1cc2c(cc1OC)C(=O)/C(=C/c1cc(-c3ccc4c(c3)OCO4)n[nH]1)C2` ? -96

Which growth at 10 µM reading was recorded for the compound `COc1ccc(C(=O)/C=C/c2cc(-c3ccc(OC)c(OC)c3)n[nH]2)cc1OC` ? -41

Which growth at 10 µM reading was recorded for the compound `COc1cc(-c2cc(/C=C/C(=O)c3ccc(N)cc3)[nH]n2)cc(OC)c1OC` ? -59

Cited source for all entries: ChEMBL document CHEMBL4138123
